Data credit: the supplement of paper PMC10567573

B1: APBB1IP (parent)
chain: SQVSMWDQRWQDHQPLLPITDVP

Variants of: B1
Test: protein stability index of a GFP-peptide fusion (GPS, HEK-293T) (PSI 1-6); higher = more stable;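 note: lentivirally expressed fusions sorted by FACS into six bins by GFP to DsRed ratio, PSI derived from sequencing read proportions per bin multiplied by bin number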
Settings: c terminus: native
Recorded Endpoint: protein stability index
Give the figure by itself; no unit, no explanation.

Look over these answered cases.
> print(dat)
   mutation.spec  value
1           D21P   2.07
2           P15E   2.77
3           W10N   3.39
4           P15S   3.35
5            Q8A   2.03

If you can, please state the reported protein stability index value of D12C .
1.56

// lookup protein stability index for P15D
4.41

Can you share its protein stability index? I mean this variant: W6S
3.08

Look up protein stability index: V3D
2.81

Requested read-out: protein stability index. Entry: L17R
2.26

Please report the recorded protein stability index for T20A .
2.33

Any idea what protein stability index was measured for V3F ?
1.86

What value of protein stability index has been recorded for this entry: Q8L
1.86

I would be grateful if you could share the reported protein stability index for V3R .
2.43
